# MEASUREMENT_TARGET: T1, Human GUCY2C ECD Cleaved (human, UniProt P25092 24-430)
# T1 construct: also called human GUCY2c extracellular domain protein (ECD)
# T1 sequence (P25092 other isoform, or with tags, fused parts or gaps): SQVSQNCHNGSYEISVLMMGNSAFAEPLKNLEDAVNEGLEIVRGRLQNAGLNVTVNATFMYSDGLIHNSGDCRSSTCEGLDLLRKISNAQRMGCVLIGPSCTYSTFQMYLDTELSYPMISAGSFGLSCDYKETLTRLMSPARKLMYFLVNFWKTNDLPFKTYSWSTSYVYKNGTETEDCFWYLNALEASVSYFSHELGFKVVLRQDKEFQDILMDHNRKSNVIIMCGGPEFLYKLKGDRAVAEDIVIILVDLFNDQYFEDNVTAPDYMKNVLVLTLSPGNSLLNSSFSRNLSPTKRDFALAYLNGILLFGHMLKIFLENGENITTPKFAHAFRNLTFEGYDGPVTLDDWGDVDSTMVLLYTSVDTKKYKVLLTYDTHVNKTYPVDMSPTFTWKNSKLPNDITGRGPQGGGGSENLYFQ
# ASSAY: SPR, human IgG1 against human GUCY2c ECD
MEASUREMENT_KIND: kon (M⁻¹ s⁻¹)
Please state the figure in M⁻¹ s⁻¹; there is no need to write the unit.

BINDER	U	kon
GUCY2C-1710 (antibody, human IgG1, V domains shown, full human IgG1/kappa) VH: EVQLVESGGGLVQPGGSLRLSCAASGFTFSSYWMHWVRQAPGKGLEWIGEIKPSRGWTNVHEKFKDRFTISVDKAKNSAYLQMNSLRAEDTAVYYCARTITTTEGYWFFDVWGQGTLVTVSS VL: DIQLTQSPSSLSASVGDRVTITCRASESVDYYRHSLMQWYQQKPGKAPKLLIYAASKLASGVPSRFSGSGSGTDFTLTISSLQPEDFATYYCQQTRKAYTFGQGTKLEIK	M⁻¹ s⁻¹	248000
GUCY2C-1640 (antibody, human IgG1, kappa, V domains shown) VH: EVQLVESGGGLVQPGGSLRLSCAASGFTFSSYWMHWVRQAPGKGLEWIGEIKPSNELTNVHEKFKDRFTISVDKAKNSAYLQMNSLRAEDTAVYYCTRTITTTEGYWFFDVWGQGTLVTVSS VL: DIQLTQSPSSLSASVGDRVTITCRASESVDYYGSSLLQWYQQKPGKAPKLLIYAASKLASGVPSRFSGSGSGTDFTLTISSLQPEDFATYYCQQTRKAYTFGQGTKLEIKR	M⁻¹ s⁻¹	195000

## Task I have this binder here, GUCY2C-1708 (antibody, human IgG1, V domains shown, full human IgG1/kappa) VH: EVQLVESGGGLVQPGGSLRLSCAASGFTFSRPWMHWVRQAPGKGLEWIGEIKPSTGWTNVHEKFKDRFTISVDKAKNSAYLQMNSLRAEDTAVYYCTRTITTTTGYWFFDVWGQGTLVTVSS VL: DIQLTQSPSSLSASVGDRVTITCRASESVDYYKHSLMQWYQQKPGKAPKLLIYAASKLASGVPSRFSGSGSGTDFTLTISSLQPEDFATYYCQQTRKAYTFGQGTKLEIK , and I need its recorded kon.
## Result 140000
